Test system: NCI-H460
Assay: Antiproliferative activity against human H460 cells
Format: functional, cell-based
Measured IC50, listed per entry for reference.

O=C1NC2n3c(cc(Br)c3Br)C(=O)N3CCCC23N1 (racemic) :: > 10 µM

Please examine the following record next.
-- ask Would you mind telling me what IC50 value was observed for CCOC(=O)N1C(=O)N(OS(=O)(=O)c2ccc(C)cc2)C23CCCN2C(=O)c2cc(Br)c(Br)n2C13 (racemic) ?
-- reply > 10 µM

###

Assay: Antiproliferative activity against human CNXF 498NL cells
Type: functional, cell-based
Conditions: Homo sapiens, CNXF 498NL
Reported IC50 values are given for each entry in this list.
The reply should be a number in µM, with the unit left off.

O=C1NC2n3c(cc(Br)c3Br)C(=O)N3CCCC23N1 (racemic) :: 0.93

Alright, here's another compound for you.
-- ask Need IC50 of O=C1c2cc(Br)c(Br)n2C2C(Cl)(Cl)C23CCCN13 (racemic) , thanks.
-- reply 5.84

Origin of values: ChEMBL document CHEMBL1146284
